- studyTarget: α-Glucosidase (EC 3.2.1.20) from Saccharomyces cerevisiae (Saccharomyces cerevisiae)
- Sequence (P53341 whole entry): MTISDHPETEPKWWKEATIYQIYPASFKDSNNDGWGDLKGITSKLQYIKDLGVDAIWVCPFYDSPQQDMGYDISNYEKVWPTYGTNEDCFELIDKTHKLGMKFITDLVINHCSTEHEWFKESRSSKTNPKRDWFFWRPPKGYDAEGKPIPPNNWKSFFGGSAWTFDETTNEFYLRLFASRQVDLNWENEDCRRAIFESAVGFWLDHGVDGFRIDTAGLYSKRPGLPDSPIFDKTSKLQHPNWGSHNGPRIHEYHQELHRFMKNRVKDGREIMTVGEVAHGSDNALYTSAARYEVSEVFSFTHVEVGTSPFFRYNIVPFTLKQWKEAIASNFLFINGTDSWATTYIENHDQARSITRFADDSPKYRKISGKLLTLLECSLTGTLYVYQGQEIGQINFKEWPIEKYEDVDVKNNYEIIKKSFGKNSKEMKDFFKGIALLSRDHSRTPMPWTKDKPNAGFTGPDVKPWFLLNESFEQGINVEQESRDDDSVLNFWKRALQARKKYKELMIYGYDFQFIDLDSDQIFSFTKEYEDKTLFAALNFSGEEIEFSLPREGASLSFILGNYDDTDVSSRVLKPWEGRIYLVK
- testDescription: α-glucosidase inhibitory assay
- Format: biochemical
- runConditions: yeast α-glucosidase, pNPG, pH 6.9, 25 °C; mean ± S.D. from three independent experiments
pIC50: −log10 of the molar value.
observedProperty: pIC50

{"structureNotation": "O=C(OC[C@H]1OC[C@H](OC(=O)c2cc(O)c(O)c(O)c2)[C@@H](OC(=O)c2cc(O)c(O)c(O)c2)[C@@H]1OC(=O)c1cc(O)c(O)c(O)c1)c1cc(O)c(O)c(O)c1", "observedProperty": "pIC50", "reportedResult": 5.37}
